target.entity: aromatic L-amino acid decarboxylase (AADC) (Sus scrofa)
Sequence (P80041 whole entry): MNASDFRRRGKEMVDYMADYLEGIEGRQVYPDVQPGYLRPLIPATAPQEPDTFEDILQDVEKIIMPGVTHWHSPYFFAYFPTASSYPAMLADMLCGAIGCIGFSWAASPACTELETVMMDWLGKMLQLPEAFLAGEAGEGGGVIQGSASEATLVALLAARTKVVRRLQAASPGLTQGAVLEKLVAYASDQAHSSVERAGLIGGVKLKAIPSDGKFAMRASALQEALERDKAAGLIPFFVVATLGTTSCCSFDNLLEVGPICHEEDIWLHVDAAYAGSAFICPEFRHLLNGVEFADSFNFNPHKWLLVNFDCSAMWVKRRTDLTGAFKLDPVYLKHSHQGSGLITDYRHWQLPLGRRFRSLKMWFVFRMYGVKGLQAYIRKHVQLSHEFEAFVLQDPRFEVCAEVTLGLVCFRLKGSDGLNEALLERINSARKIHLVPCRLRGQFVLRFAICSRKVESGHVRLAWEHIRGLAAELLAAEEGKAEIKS
assay.overview: Decarboxylation of L-DOPA (AADC activity) in LLC-PK1 cells
study.conditions: read-out: inhibition of AADC activity IC50
pIC50: −log10 of the molar value.
outcome.measure: pIC50

> print(dat)
                                   compound  outcome.measure  assay.result
1  NC(CO)C(=O)NNCc1ccc(O)c(O)c1O (stereo not shown) [benserazide]            pIC50          7.15

The measured values listed here are drawn from patent US20040242503A1.
